- study-target: M. tuberculosis RNAP (Mycobacterium tuberculosis, UniProt P9WGY7+P9WGY9)
- Sequence (P9WGY9 whole entry): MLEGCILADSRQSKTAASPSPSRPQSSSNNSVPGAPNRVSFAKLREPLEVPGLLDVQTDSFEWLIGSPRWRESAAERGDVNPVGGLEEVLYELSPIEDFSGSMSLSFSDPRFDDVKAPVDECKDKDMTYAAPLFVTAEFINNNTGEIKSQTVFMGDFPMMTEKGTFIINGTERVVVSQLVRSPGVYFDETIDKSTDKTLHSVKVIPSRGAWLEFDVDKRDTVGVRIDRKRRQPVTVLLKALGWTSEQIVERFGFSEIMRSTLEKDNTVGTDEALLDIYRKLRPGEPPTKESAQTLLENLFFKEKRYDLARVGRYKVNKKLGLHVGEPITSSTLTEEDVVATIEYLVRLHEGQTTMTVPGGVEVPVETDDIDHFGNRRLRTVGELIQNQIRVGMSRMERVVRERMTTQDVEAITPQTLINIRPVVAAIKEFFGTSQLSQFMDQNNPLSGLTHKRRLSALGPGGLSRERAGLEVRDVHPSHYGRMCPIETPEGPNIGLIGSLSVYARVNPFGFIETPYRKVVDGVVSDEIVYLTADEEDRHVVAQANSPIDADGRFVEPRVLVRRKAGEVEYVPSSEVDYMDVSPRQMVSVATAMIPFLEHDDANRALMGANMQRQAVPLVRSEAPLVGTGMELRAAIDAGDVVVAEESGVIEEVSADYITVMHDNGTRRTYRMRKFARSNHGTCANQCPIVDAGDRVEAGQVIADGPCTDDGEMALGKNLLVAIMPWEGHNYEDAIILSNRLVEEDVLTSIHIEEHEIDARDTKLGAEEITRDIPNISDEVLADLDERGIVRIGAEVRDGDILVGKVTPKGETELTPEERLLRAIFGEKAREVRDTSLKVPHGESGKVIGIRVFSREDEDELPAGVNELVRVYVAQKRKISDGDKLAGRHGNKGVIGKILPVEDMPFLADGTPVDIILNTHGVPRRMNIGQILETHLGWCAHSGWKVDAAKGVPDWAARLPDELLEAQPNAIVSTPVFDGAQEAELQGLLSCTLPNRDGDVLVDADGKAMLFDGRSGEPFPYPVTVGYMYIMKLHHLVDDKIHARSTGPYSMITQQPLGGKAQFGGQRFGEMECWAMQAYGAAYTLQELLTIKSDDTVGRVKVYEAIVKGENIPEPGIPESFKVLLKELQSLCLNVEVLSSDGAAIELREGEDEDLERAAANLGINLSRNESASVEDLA
- Sequence (P9WGY5 whole entry, further chain): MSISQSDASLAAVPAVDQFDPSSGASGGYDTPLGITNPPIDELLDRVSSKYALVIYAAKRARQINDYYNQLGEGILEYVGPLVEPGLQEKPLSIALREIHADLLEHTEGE
- Sequence (P9WGZ1 whole entry, further chain): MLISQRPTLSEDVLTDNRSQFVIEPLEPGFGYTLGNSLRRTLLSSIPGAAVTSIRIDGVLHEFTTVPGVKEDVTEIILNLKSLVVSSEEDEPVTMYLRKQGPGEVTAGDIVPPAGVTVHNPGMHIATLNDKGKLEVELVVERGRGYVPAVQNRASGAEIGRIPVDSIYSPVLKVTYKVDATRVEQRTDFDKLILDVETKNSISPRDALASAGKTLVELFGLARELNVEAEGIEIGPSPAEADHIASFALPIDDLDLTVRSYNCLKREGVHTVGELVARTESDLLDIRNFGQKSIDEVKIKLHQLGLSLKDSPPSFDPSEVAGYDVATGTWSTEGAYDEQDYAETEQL
- Sequence (P9WHJ5 whole entry, further chain): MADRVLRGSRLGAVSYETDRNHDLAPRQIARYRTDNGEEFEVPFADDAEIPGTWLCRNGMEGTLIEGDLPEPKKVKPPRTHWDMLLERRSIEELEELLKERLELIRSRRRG
- Sequence (P9WGY7 whole entry): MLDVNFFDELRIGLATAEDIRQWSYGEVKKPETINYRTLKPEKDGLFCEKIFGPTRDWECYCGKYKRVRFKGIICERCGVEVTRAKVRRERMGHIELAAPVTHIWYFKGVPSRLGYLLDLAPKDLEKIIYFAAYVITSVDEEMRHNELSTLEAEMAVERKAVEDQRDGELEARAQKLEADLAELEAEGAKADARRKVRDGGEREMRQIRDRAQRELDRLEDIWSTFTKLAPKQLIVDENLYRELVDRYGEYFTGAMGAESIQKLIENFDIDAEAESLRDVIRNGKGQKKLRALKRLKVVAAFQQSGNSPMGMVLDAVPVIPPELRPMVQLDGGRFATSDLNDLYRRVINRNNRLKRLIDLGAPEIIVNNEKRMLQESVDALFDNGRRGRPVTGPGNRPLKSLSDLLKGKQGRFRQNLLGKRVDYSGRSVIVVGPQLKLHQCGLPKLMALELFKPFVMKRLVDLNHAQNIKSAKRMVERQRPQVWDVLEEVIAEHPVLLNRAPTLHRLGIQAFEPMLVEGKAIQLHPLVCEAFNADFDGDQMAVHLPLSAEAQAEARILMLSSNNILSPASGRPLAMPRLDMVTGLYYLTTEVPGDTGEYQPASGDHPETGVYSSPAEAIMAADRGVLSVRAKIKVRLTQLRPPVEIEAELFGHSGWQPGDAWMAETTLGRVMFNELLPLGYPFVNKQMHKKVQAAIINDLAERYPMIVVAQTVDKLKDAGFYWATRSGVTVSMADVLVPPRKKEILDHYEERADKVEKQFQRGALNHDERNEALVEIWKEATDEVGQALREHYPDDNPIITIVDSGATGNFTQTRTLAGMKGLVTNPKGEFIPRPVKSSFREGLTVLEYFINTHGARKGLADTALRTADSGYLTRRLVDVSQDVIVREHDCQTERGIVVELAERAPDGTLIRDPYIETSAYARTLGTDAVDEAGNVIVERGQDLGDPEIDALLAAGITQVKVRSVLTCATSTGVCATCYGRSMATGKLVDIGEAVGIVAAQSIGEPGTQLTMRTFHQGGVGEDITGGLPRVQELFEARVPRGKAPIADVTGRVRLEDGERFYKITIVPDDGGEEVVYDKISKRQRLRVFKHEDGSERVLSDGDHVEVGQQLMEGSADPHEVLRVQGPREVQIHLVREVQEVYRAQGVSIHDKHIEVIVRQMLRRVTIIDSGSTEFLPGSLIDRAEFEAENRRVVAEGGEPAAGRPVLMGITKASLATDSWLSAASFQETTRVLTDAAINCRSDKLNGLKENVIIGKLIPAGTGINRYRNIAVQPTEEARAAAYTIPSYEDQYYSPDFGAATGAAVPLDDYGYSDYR
- Sequence (P9WGI1 whole entry, further chain): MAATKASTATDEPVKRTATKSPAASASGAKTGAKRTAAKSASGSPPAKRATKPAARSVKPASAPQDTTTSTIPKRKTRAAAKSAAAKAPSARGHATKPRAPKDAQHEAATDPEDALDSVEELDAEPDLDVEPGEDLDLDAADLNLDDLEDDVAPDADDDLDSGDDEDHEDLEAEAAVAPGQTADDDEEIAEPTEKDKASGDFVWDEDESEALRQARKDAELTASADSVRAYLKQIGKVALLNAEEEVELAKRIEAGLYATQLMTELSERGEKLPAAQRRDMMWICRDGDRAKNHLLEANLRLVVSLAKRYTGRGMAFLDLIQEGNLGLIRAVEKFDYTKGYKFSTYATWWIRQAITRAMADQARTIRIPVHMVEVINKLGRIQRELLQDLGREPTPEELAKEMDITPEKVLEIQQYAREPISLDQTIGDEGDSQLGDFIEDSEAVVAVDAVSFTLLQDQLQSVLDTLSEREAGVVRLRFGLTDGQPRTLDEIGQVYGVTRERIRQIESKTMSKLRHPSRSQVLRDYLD
- test-name: biochemical
- test-context: fluorescent run-off transcription assay, triplicate, mean ± s.d.; read-out: IC50 Mtb RNAP, fluorescence read-out
What IC50 was measured for each of the following?
One number for each entry, in nM.

CC[C@H]1/C=C(\C)[C@@H](O)C/C=C/C=C(\CNc2nc(COc3ccccc3)cs2)C(=O)O[C@H]([C@@H](C)O)C/C=C(C)/C=C(\C)[C@@H]1O[C@@H]1OC(C)(C)[C@@H](OC(=O)C(C)C)[C@H](O)[C@@H]1O :: 170

Now for the molecule whose IC50 we want.
INPUT: Which value of IC50 has been reported for "CC[C@H]1/C=C(\C)[C@@H](O)C/C=C/C=C(\CNc2cccc(CNC(=O)c3ccc(OC)c(OC)c3Cl)c2)C(=O)O[C@H]([C@@H](C)O)C/C=C(C)/C=C(\C)[C@@H]1O[C@@H]1OC(C)(C)[C@@H](OC(=O)C(C)C)[C@H](O)[C@@H]1O" in the records?
OUTPUT: 620
